# ASSAY_SYSTEM: Hepatocyte growth factor receptor (Homo sapiens)
# EXPERIMENTAL_CONTEXT: at 1 µM
READOUT_TYPE: residual activity (%)
Unit % implied. Number only.

*Q* Which residual activity is reported for this compound? "O=c1c2ccccc2[nH]c(=S)n1CCN1CCC(=C(c2ccc(F)cc2)c2ccc(F)cc2)CC1"
*A* 136

*Q* What does the record list as residual activity for "CN(C)c1ccc(/C=C2\C(=O)Nc3ccccc32)cc1" ?
*A* 112

*Q* Need residual activity, item "CO[C@H]1[C@@H](OC)C[C@H](C)[C@@H](OC)C2=CC(=O)C=C(NC(=O)/C(C)=C/C=C/[C@H](OC)[C@@H](OC(N)=O)/C(C)=C/[C@@H]1C)C2=O"
*A* 114

*Q* Find the recorded residual activity belonging to "O=C(Nc1cccc(Nc2cc(Nc3cccc(C(F)(F)F)c3)ncn2)c1)C1CC1" and report it.
*A* 103

*Q* # input compound: "Oc1ccc(Nc2nc(-c3ccc(Cl)cc3)cs2)cc1" ; wanted: its residual activity
*A* 138

Others:
*Q* Need residual activity of "O=C1NC(=O)/C(=C\c2ccc3nccnc3c2)S1" , thanks.
*A* 98

*Q* Endpoint output: residual activity of "CCOc1cc2ncnc(Nc3cccc(Br)c3)c2cc1OCC" . Value?
*A* 58

*Q* Which residual activity is listed for "CC[n+]1c(/C=C/N(C)c2ccccc2)n(-c2ccccc2)c2ccc(-c3nc4ccccc4s3)cc21" ?
*A* 97

*Q* I'd like to know its residual activity. The compound in question is "Oc1ccc(-c2nc(-c3ccc(F)cc3)c(-c3ccncc3)[nH]2)cc1"
*A* 117

*Q* Entry "COc1ccc(C(=O)Nc2sc3c(c2C(N)=O)CCCC3)cc1OC" has what residual activity?
*A* 120
